# maps each entry to its CC50 at 48 h
Experiment: Cytotoxicity against non-malignant HPC cells, MTT method, 48 h
Assay type: cell-based
Details: human, pulp cells (HPC)
Give the number; µM is assumed, so skip it.

Input line: Report CC50 at 48 h for COc1ccc(/C=C2\CN(C(=O)CC[N+]3(C)CCC(=NO)CC3)C/C(=C\c3ccc(OC)cc3)C2=O)cc1 (centres unmarked) please.
Output line: 15.6

Input line: Would you mind doing C[N+]1(CCC(=O)N2C/C(=C\c3ccc([N+](=O)[O-])cc3)C(=O)/C(=C/c3ccc([N+](=O)[O-])cc3)C2)CCC(=NO)CC1 (centres unmarked) as well?
Output line: 2.46

Input line: Okay, and COc1cc(/C=C2\CN(C(=O)CCN3CCC(=NO)CC3)C/C(=C\c3cc(OC)c(OC)c(OC)c3)C2=O)cc(OC)c1OC ?
Output line: 1.8

More entries:
Input line: Requested read-out: CC50 at 48 h. Entry: O=C1/C(=C/c2ccc([N+](=O)[O-])cc2)CN(C(=O)CCN2CCC(=NO)CC2)C/C1=C\c1ccc([N+](=O)[O-])cc1
Output line: 5.07

Input line: And C[N+]1(CCC(=O)N2C/C(=C\c3ccc(F)cc3)C(=O)/C(=C/c3ccc(F)cc3)C2)CCC(=NO)CC1 (centres unmarked) ?
Output line: 11.3

----------
Assay: Cytotoxicity against non-malignant HPC cells, MTT method, 48 h
Format: cell-based
Settings: human, pulp cells (HPC)
Reported CC50 at 48 h values for a set of compounds
Reply numerically in µM, unit not repeated.

In the examples that follow, each entry is paired with its recorded CC50 at 48 h.
Input line: I am curious: what CC50 at 48 h value has been reported for COc1cc(/C=C2\CN(C(=O)CC[N+]3(C)CCC(=NO)CC3)C/C(=C\c3cc(OC)c(OC)c(OC)c3)C2=O)cc(OC)c1OC (centres unmarked) ?
Output line: 2.35

Input line: // next record COc1ccc(/C=C2\CN(C(=O)CCN3CCC(=NO)CC3)C/C(=C\c3ccc(OC)cc3)C2=O)cc1
Output line: 13.6

Input line: Same for O=C1/C(=C/c2ccccc2)CN(C(=O)CCN2CCC(=NO)CC2)C/C1=C\c1ccccc1
Output line: 11.5

Input line: Check O=C1/C(=C/c2ccc(Cl)cc2)CN(C(=O)CCN2CCC(=NO)CC2)C/C1=C\c1ccc(Cl)cc1 too.
Output line: 26.1

As a next step, examine the compound that follows.
Input line: Any idea what CC50 at 48 h was measured for C[N+]1(CCC(=O)N2C/C(=C\c3ccc(Cl)cc3)C(=O)/C(=C/c3ccc(Cl)cc3)C2)CCC(=NO)CC1 (centres unmarked) ?
Output line: 6.3

----------
Form field: SI HSC-2 (one value per entry).
System: HSC-2 cells
Assay: Cytotoxicity against HSC-2 cells, MTT method, 48 h
Type: cell-based, human
Conditions: average CC50 towards HGF, HPLF, HPC divided by CC50 against HSC-2
Just the number, please, no unit after it.

# count of solved cases: 5
Input line: Form field: reported SI HSC-2 of O=C1/C(=C/c2ccc(Cl)c(Cl)c2)CN(C(=O)CCN2CCC(=NO)CC2)C/C1=C\c1ccc(Cl)c(Cl)c1 [Compound 3d]
Output line: 35.9

Input line: And then C[N+]1(CCC(=O)N2C/C(=C\c3ccc([N+](=O)[O-])cc3)C(=O)/C(=C/c3ccc([N+](=O)[O-])cc3)C2)CCC(=NO)CC1 (stereo not drawn) [Compound 4e] , what is it?
Output line: 41.4

Input line: Would you kindly repeat that for COc1cc(/C=C2\CN(C(=O)CCN3CCC(=NO)CC3)C/C(=C\c3cc(OC)c(OC)c(OC)c3)C2=O)cc(OC)c1OC [Compound 3h] ?
Output line: 13.4

Input line: Same read-out for C[N+]1(CCC(=O)N2C/C(=C\c3ccc(F)cc3)C(=O)/C(=C/c3ccc(F)cc3)C2)CCC(=NO)CC1 (stereo not drawn) [Compound 4b] ?
Output line: 19.8

Input line: Another compound: COc1cccc2c1C(=O)c1c(O)c3c(c(O)c1C2=O)C[C@@](O)(C(=O)CO)C[C@@H]3O[C@H]1C[C@H](N)[C@H](O)[C@H](C)O1 [Doxorubicin, reference compound]
Output line: 66.5

Pending compound:
Input line: What value of SI HSC-2 has been reported for the following compound? COc1ccc(/C=C2\CN(C(=O)CCN3CCC(=NO)CC3)C/C(=C\c3ccc(OC)cc3)C2=O)cc1 [Compound 3g]
Output line: 6.92

----------
Test system: Ca9-22 cells
Experiment: Cytotoxicity against Ca9-22 cells, MTT method, 48 h
Format: cell-based, human
Conditions: average CC50 towards HGF, HPLF, HPC divided by CC50 against Ca9-22
Below is a list of entries, each paired with its recorded SI Ca9-22 value.
Enter the number alone.

// known answers, use as guide
Input line: Looking for the measured SI Ca9-22 of O=C1/C(=C/c2ccc(F)cc2)CN(C(=O)CCN2CCC(=NO)CC2)C/C1=C\c1ccc(F)cc1 , can you help?
Output line: 28.1

Input line: Also, Cc1ccc(/C=C2\CN(C(=O)CCN3CCC(=NO)CC3)C/C(=C\c3ccc(C)cc3)C2=O)cc1 please.
Output line: 15.3

Continuing:
Input line: I have this compound here, COc1cc(/C=C2\CN(C(=O)CCN3CCC(=NO)CC3)C/C(=C\c3cc(OC)c(OC)c(OC)c3)C2=O)cc(OC)c1OC , and I need its recorded SI Ca9-22.
Output line: 43.9

Input line: Now consider COc1ccc(/C=C2\CN(C(=O)CC[N+]3(C)CCC(=NO)CC3)C/C(=C\c3ccc(OC)cc3)C2=O)cc1 (stereo not drawn) and answer again.
Output line: 41.0

Input line: COc1ccc(/C=C2\CN(C(=O)CCN3CCC(=NO)CC3)C/C(=C\c3ccc(OC)cc3)C2=O)cc1 ?
Output line: 18.3

Input line: Another compound: C[N+]1(CCC(=O)N2C/C(=C\c3ccc(Cl)c(Cl)c3)C(=O)/C(=C/c3ccc(Cl)c(Cl)c3)C2)CCC(=NO)CC1 (stereo not drawn)
Output line: 236

----------
Assay: Cytotoxicity against non-malignant HPC cells, MTT method, 48 h
Type: cell-based
Conditions: human, pulp cells (HPC)
# note: exactly 8 µM is not below, so it is not satisfied; use satisfied for CC50 at 48 h strictly under it

Study these solved cases before continuing.
Input line: Dear colleague, could you confirm whether CC50 at 48 h of COc1cccc2c1C(=O)c1c(O)c3c(c(O)c1C2=O)C[C@@](O)(C(=O)CO)C[C@@H]3O[C@H]1C[C@H](N)[C@H](O)[C@H](C)O1 [Doxorubicin, reference compound] falls below 8 µM? Thanks.
Output line: not satisfied

Input line: Similarly, O=C1/C(=C/c2ccc(Cl)c(Cl)c2)CN(C(=O)CCN2CCC(=NO)CC2)C/C1=C\c1ccc(Cl)c(Cl)c1 ?
Output line: satisfied

Input line: Also need N[C@@H](Cc1ccc(N(CCCl)CCCl)cc1)C(=O)O [Melphalan, reference compound] , thanks.
Output line: not satisfied

Input line: // next record C[N+]1(CCC(=O)N2C/C(=C\c3ccc(Cl)c(Cl)c3)C(=O)/C(=C/c3ccc(Cl)c(Cl)c3)C2)CCC(=NO)CC1 (stereo not drawn)
Output line: satisfied

Input line: Try C[N+]1(CCC(=O)N2C/C(=C\c3ccccc3)C(=O)/C(=C/c3ccccc3)C2)CCC(=NO)CC1 (stereo not drawn) next.
Output line: not satisfied

Continuing:
Input line: Report whether reported CC50 at 48 h is lower than 8 µM (strictly) for O=C1/C(=C/c2ccc(F)cc2)CN(C(=O)CCN2CCC(=NO)CC2)C/C1=C\c1ccc(F)cc1
Output line: not satisfied

Input line: Please do the same for O=C1/C(=C/c2ccc(O)cc2)CN(C(=O)CCN2CCC(=NO)CC2)C/C1=C\c1ccc(O)cc1 as well.
Output line: not satisfied

Input line: Repeat for the following compound: Cc1ccc(/C=C2\CN(C(=O)CC[N+]3(C)CCC(=NO)CC3)C/C(=C\c3ccc(C)cc3)C2=O)cc1 (stereo not drawn)
Output line: not satisfied

# credit: paper PMC8659243
